Test: MRT (0 to t) in ICR mouse at 1 mg/kg, iv measured upto 24 hrs by LCMS analysis
Assay type: ADME, organism-based
Settings: in vivo
quantity.kind: MRT last at 24 h
Kindly write the number and append the unit.

// O=C(O)CN1CCc2nc(OCc3cccc(-c4ccccc4F)c3Cl)ccc2C1 : MRT last at 24 h value = 3.7 h

* * *

Parameter 'readout' = pIC50; parameter 'system' = Programmed cell death protein 1/Programmed cell death 1 ligand 1 (Homo sapiens).
Sequence (Q15116 whole entry): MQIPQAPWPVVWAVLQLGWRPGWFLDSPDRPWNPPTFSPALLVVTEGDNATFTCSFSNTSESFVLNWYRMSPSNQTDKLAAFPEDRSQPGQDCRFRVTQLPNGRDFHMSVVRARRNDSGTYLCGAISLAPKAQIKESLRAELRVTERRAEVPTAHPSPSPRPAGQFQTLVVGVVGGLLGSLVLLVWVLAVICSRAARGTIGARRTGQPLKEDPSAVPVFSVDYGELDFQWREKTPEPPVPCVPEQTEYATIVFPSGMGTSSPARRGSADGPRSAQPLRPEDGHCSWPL
Sequence (Q9NZQ7 whole entry): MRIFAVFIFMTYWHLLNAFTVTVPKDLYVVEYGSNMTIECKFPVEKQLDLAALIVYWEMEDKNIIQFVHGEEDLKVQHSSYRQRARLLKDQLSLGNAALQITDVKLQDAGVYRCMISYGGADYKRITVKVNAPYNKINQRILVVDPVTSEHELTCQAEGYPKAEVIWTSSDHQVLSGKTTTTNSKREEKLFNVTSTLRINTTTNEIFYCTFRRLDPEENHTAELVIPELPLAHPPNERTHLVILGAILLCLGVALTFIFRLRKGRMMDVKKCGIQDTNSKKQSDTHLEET
Reminder that pIC50 means the negative base-10 logarithm of the concentration expressed in mol/L.

1) Cc1c(COc2ccc3c(n2)CCN(CCO)C3)cccc1-c1ccccc1Cl ... 6.66
2) Cc1ccccc1-c1cccc(COc2ccc3c(n2)CCN(CCO)C3)c1C ... 6.39
3) CCOC(=O)CN1CCc2nc(C(=O)Nc3cccc(-c4cccc(F)c4F)c3Cl)ccc2C1 ... 4.47
4) Cc1c(COc2ccc3c(n2)CCN(CCO)C3)cccc1-c1ccccc1 ... 6.64
5) N#Cc1cccc(-c2cccc(NC(=O)c3ccc4c(n3)CCN(CCO)C4)c2Cl)c1F ... 7.23

// CC(C)OC(=O)CN1CCc2nc(OCc3cccc(-c4ccccc4F)c3Cl)ccc2C1 : pIC50 value = 6.36
